Biological target: Cytochrome P450 1A2 (Homo sapiens, UniProt P05177)
Sequence (P05177 whole entry): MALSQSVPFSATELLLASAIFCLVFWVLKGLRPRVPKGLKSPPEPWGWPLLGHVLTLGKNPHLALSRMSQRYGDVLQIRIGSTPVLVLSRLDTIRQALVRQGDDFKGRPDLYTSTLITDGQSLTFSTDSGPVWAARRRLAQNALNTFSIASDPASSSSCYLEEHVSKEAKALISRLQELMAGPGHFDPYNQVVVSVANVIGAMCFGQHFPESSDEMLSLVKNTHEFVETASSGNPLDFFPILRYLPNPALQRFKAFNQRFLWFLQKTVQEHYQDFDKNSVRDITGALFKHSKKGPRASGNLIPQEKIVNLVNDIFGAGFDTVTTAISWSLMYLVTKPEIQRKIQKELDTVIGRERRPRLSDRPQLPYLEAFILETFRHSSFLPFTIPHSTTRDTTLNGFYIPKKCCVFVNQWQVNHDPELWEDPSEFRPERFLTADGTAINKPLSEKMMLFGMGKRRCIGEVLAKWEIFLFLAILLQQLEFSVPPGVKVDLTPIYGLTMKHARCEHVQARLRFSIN
pIC50: −log10 of the molar value.
# pIC50 listing for each entry below
METRIC: pIC50

compound="CCc1ccccc1C(C(=O)Nc1ccc2[nH]nc(-c3cccc(S(N)(=O)=O)c3)c2c1)N(C)C (racemic)" metric=pIC50 assay_result="< 5.00"
compound=CCc1cccc(CC)c1NC(=O)Nc1ccc2[nH]nc(-c3cccc(S(N)(=O)=O)c3)c2c1 metric=pIC50 assay_result="< 5.00"

Origin of measurements: ChEMBL document CHEMBL3352261
